pIC50 reference
ASSAY_SYSTEM: Transient receptor potential cation channel subfamily V member 1 (Homo sapiens, UniProt Q8NER1)
Sequence (Q8NER1 whole entry): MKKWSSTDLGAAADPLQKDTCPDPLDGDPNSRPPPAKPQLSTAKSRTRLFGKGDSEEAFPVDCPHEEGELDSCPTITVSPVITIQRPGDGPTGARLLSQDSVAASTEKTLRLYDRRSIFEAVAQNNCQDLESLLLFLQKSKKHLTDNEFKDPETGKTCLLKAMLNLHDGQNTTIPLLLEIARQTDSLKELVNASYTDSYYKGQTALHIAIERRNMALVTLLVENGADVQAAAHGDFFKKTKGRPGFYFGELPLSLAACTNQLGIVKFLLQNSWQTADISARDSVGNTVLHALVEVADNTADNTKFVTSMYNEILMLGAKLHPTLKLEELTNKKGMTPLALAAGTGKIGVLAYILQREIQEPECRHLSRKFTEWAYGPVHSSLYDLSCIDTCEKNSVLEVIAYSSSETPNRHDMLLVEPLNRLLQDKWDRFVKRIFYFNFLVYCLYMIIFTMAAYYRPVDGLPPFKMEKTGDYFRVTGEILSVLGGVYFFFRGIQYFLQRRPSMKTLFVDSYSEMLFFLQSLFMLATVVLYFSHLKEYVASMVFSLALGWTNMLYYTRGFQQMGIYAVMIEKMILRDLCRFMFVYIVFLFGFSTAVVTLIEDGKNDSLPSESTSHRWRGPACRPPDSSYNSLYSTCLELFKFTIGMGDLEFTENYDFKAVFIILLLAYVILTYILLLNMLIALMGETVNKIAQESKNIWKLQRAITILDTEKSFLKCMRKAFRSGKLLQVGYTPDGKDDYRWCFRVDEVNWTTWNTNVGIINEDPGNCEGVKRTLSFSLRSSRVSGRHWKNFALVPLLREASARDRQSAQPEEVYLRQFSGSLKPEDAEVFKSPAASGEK
ASSAY_PROCEDURE: Inhibition of human vanilloid receptor 1 in HEK293 cells in pH 5.5-induced FLIPR assay
Type: cell-based
pIC50: −log10 of the molar value.

Example molecules with recorded pIC50:
Cc1ccc(N2CCN(C(=O)Nc3ccc(C(F)(F)F)cc3)CC2)nn1 < 5.00
Cc1ccnnc1N1CCN(C(=O)Nc2ccc(C(C)C)cc2)CC1 5.56
Cc1cc(N2CCN(C(=O)Nc3ccc(C(C)(C)C)cc3)CC2)nnc1Cl < 5.00
Cc1ccc(N2CCN(C(=O)Nc3nc4ccc(F)cc4s3)CC2)nn1 < 5.00
O=C(Nc1ccc(C(F)(F)F)cc1)N1CCN(c2nncc3ccccc23)CC1 < 5.00

Turning now to a further record.
[ask] Tell me its pIC50 given `COc1ccc(N2CCN(C(=O)Nc3nc4ccc(F)cc4s3)CC2)nn1` as the entry.
[reply] < 5.00

----------
ASSAY_PROCEDURE: Rat liver metabolic stability was determined
Assay type: ADME, tissue-based
ENDPOINT_NAME: Remaining activity (%)

Cc1cc(Cl)nnc1N1CCN(C(=O)Nc2ccc(C(C)(C)C)cc2)[C@H](C)C1 26

I = Cc1ccnnc1N1CCN(C(=O)Nc2ccc(C(F)(F)F)cc2)[C@H](C)C1
II = Cc1ccnnc1N1CCN(C(=O)Nc2ccc(C(C)(C)C)cc2)[C@H](C)C1
[ask] Of the two listed items, I and II , which carries the larger Remaining activity figure? Return value: the label identifying the chosen record.
[reply] I

A = Cc1cc(Cl)nnc1N1CCN(C(=O)Nc2nc3ccc(F)cc3s2)[C@H](C)C1
B = CC(C)(C)c1ccc(NC(=O)N2CCN(c3ncccc3Cl)CC2)cc1
[ask] Please tell me which of the two, A or B , has the higher reported Remaining activity value. Please reply using the label of the selected record.
[reply] A

----------
ASSAY_PROCEDURE: In vivo half life of compound after intravenous administration in rats at concentration of 3 mg/kg was determined
Format: ADME, organism-based
Parameters: dose 3 mg/kg, route intravenous
EXPERIMENTAL_SETUP: rat
ENDPOINT_NAME: half-life (min)

A = Cc1cc(Cl)nnc1N1CCN(C(=O)Nc2ccc(C(C)(C)C)cc2)[C@H](C)C1
B = Cc1ccnnc1N1CCN(C(=O)Nc2ccc(C(C)(C)C)cc2)[C@H](C)C1
C = Cc1cc(Cl)nnc1N1CCN(C(=O)Nc2nc3ccc(F)cc3s2)[C@H](C)C1
D = Cc1ccnnc1N1CCN(C(=O)Nc2ccc(C(F)(F)F)cc2)[C@H](C)C1
[ask] Reorder: half-life, max to min. Put the labels in the requested order and write them down.
[reply] C, D, B, A

----------
ASSAY_SYSTEM: Transient receptor potential cation channel subfamily V member 1 (Homo sapiens)
ASSAY_PROCEDURE: Inhibition of human vanilloid receptor 1 in HEK293 cells in pH 5.5-induced FLIPR assay
Format: cell-based
pIC50: −log10 of the molar value.
A collection of molecules and their measured pIC50

O=C(Nc1ccc(C(F)(F)F)cc1)N1CCN(c2cccnn2)CC1 < 5.00

Could you now look at the following molecule, please?
[ask] Recall and state the measured pIC50 for `Cc1ccnnc1N1CCN(C(=O)Nc2ccc(-c3ccccc3)cc2)CC1` .
[reply] 5.24
